We begin with a simple list: items and their reported growth inhibition.
Assay: NCI Yeast Anticancer Drug Screen. Data for the mec2-1 strain (AID 157)
Details: S. cerevisiae mec2-1 strain, at 50.0 µM, active compounds read high
Compounds without any hit were thinned out: in the full panel of roughly 79,000, 15% have a hit.
measurement.kind: growth inhibition (%)

{"molecule": "CC12OC1(C)C1C(=O)OCC1C2=O (configuration not stated)", "measurement": 3.6}
{"molecule": "COc1cc(C(CC(=O)N(CCCl)CCCl)c2ccc3c(c2)OCO3)cc(OC)c1OC (configuration not stated)", "measurement": 10.1}
{"molecule": "CC[N+](C)(CC)CCC(C(=O)NC)(c1ccccc1)c1ccccc1", "measurement": -1.35}
{"molecule": "NC(N)=NCCCCCCCCCCN=C(N)N", "measurement": -20.2}
{"molecule": "CC(=O)[O-].CC(=O)[O-].CC(=O)[O-].CC(=O)[O-].[Mo+2].[Mo+2]", "measurement": 2.1}
{"molecule": "COC12C(COC(N)=O)C3=C(C(=O)C(C)=C(N)C3=O)N1CC1C2N1C (configuration not stated)", "measurement": 44.6}
{"molecule": "Cc1cc2c(cc1O)C(C)(C)CCC2(C)C", "measurement": 97.2}
{"molecule": "COc1ccc2nc3cc(Cl)ccc3c(NCCCN(CCCl)CCCl)c2c1", "measurement": 19.2}
{"molecule": "CCN(CC)C(=O)N1CN(c2ccccc2)C2(CCN(CCCC3(c4ccc(F)cc4)OCCO3)CC2)C1=O", "measurement": 24.1}
{"molecule": "OC1C2[C@@H](O)CCCN2C[C@@H](O)[C@H]1O (some centres not stated)", "measurement": -59}
{"molecule": "Brc1ccc2nncc(N3CC3)c2c1", "measurement": -16.6}
{"molecule": "CC([NH-])C(C)[NH-].CC([NH-])C(C)[NH-].CC([NH-])C(C)[NH-].[Cr+6] (configuration not stated)", "measurement": 22.8}
{"molecule": "CC(C)c1oc(=O)cc2c1C(O)C1OC(=O)C3(C)C(O)C4OC4C2(C)C13 (configuration not stated)", "measurement": -10.8}
{"molecule": "CC(C)=N.[C-]#[O+].[C-]#[O+].[C-]#[O+].[C-]#[O+].[C-]#[O+].[W]", "measurement": -2.45}
{"molecule": "CCOP(=S)(OCC)SCc1c(C)c(C)c(CSP(=S)(OCC)OCC)c(C)c1C", "measurement": -3.75}
{"molecule": "CNc1cc(Cl)c(C#N)c(Cl)c1", "measurement": -2.7}
{"molecule": "O=C(O)COc1nc(Cl)c(Cl)cc1Cl", "measurement": 6}
{"molecule": "O=c1oc2cc(O)ccc2c(O)c1C(c1ccc(/C=C/c2ccccc2)cc1)c1c(O)c2ccc(O)cc2oc1=O", "measurement": 91.8}
{"molecule": "CC(C)C(CC[C@@H](C)C1CC[C@@]2(C)C3=C(CC[C@]12C)[C@@]1(C)CC[C@H](O)C(C)(C)[C@@H]1CC3)S[As](C)C (some centres not stated)", "measurement": -0.5}
{"molecule": "CC1=CC=NC(Cl)(Cl)N1", "measurement": -9.6}
{"molecule": "c1ccc(N2CCNCC2)nc1", "measurement": -4.3}
{"molecule": "Cc1ccc(N=P(c2ccccc2)(c2ccccc2)c2ccccc2)cc1.[Br][Hg][Br]", "measurement": 97.6}
